target: human Npt2a (Homo sapiens, UniProt Q06495); experiment: Npt2a activity cell based assay, membrane potential dye, CHO T-REx hNpt2a cells; conditions: doxycycline-induced, depolarization by sodium phosphate influx, average or median values if tested more than once
Sequence (Q06495 whole entry): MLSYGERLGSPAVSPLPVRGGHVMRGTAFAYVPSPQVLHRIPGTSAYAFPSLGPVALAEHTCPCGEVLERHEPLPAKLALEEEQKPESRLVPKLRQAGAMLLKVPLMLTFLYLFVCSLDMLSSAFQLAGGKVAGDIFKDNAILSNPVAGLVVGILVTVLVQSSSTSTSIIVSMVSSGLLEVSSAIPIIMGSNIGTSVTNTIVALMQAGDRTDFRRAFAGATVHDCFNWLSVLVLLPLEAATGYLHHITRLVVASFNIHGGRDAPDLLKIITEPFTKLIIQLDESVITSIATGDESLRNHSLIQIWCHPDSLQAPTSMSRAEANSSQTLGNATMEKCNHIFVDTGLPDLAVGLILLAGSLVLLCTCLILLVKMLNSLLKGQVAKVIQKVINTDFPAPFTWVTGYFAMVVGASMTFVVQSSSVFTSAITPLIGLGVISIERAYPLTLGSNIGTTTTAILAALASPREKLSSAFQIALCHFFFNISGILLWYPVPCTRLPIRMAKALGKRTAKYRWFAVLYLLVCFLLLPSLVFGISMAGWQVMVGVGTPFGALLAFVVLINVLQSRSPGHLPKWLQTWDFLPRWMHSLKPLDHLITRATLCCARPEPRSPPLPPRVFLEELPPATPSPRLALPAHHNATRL
Decide using IC50 alone. Strictly below 300 nM: TRUE. Equal to or above 300 nM: FALSE.

structure_notation=CCOC(=O)c1c(C)nn(-c2cc(Nc3nn(C)c(-c4ccc(F)cc4)c3CC)ncn2)c1C label=FALSE
structure_notation=Cc1nn(-c2cc(Nc3c(C)c(-c4ccc(C(F)F)nc4)nn3CC3CC3)ncn2)c(C)c1C#N label=FALSE
structure_notation=CCOC(=O)c1c(C)nn(-c2cc(Nc3c(C)nn(-c4ccc(F)cc4)c3C)ncn2)c1C label=TRUE
structure_notation=Cc1cc(C(F)F)n(-c2cc(Nc3c(C)c(-c4ccc(OC(F)(F)F)cc4)nn3CC3CC3)ncn2)n1 label=TRUE

Could you please tell me whether IC50 recorded for Cc1nn(-c2cc(Nc3c(C)c(-c4ccc(C#N)cc4)nn3CCC3CC3)ncn2)c(C)c1Cl is less than 300 nM?
TRUE

Could you please tell me whether IC50 recorded for Cc1cc(C)n(-c2cc(Nc3c(C#N)c(-c4ccc(F)cc4)nn3C)ncn2)n1 is less than 300 nM?
FALSE

###

biological target: human Npt2a (Homo sapiens); experiment: Npt2a activity cell based assay, membrane potential dye, CHO T-REx hNpt2a cells; settings: doxycycline-induced, depolarization by sodium phosphate influx, average or median values if tested more than once
parameter: IC50 (nM)
Report the value in nM with no unit label.

Solved cases below.
compound=COc1c(C)nn(-c2cc(Nc3c(C)c(-c4ccc(F)cc4)nn3CC3CC3)ncn2)c1C endpoint_unit=nM recorded_value=4
compound="Cc1nn(-c2cc(Nc3c(C)c(-c4ccc(F)cc4)nn3CC3CC3)ncn2)c(C)c1[S+](C)[O-] (stereo not shown)" endpoint_unit=nM recorded_value=1400
compound=Cc1nn(-c2cc(Nc3c(C)c(-c4ccc(OC(F)F)cc4)nn3CC3CC3)ncn2)c(C)c1C(F)(F)F endpoint_unit=nM recorded_value=45

Now for the compound whose IC50 we want.
For the compound shown here, Cc1cc(C)n(-c2cc(Nc3c(C)c(-c4ccc(F)cc4)nn3CC(O)C3CC3)ncn2)n1 (racemic) [Example 369] , give the reported IC50.
420

###

Target: human Npt2a (Homo sapiens, UniProt Q06495)
Assay: Npt2a activity cell based assay, membrane potential dye, CHO T-REx hNpt2a cells
Conditions: doxycycline-induced, depolarization by sodium phosphate influx, average or median values if tested more than once
Procedure: For measuring Npt2a activity in a cell based assay, a stable CHO cell line with inducible Npt2a expression was generated. […] Activity of Npt2a was detected by following depolarization of cellular membrane potential by influx of sodium phosphate using fluorescent membrane potential dye kit BLUE (Molecular devices cat. R8034). […] Plates were analyzed with an in house CCD camera device using a λexc 510-545 nm/λem 565-625 nm filter. Fluorescence was detected for 15 sec (background measurement M1). […]
parameter: IC50 (nM)
Report the value in nM with no unit label.

Solved cases below.
structure_notation=COc1c(Nc2cc(-n3nc(C)c(OC)c3C)ncn2)nn(C)c1-c1ccc(C#N)cc1 endpoint_unit=nM recorded_value=625
structure_notation=CCc1c(-c2ccc(F)cc2)nn(C2CC2)c1Nc1cc(-n2nc(C)cc2C)ncn1 endpoint_unit=nM recorded_value=870
structure_notation=COc1ccc(-c2nn(C)c(Nc3cc(-n4nc(C)c(Cl)c4C)ncn3)c2C)cn1 endpoint_unit=nM recorded_value=1200
structure_notation=Cc1cc(C)n(-c2cc(Nc3[nH]nc(-c4ccc(F)cc4)c3Cl)ncn2)n1 endpoint_unit=nM recorded_value=70
structure_notation=Cc1ccc(-c2nn(C)c(Nc3cc(-n4nc(C)c(C(F)(F)F)c4C)ncn3)c2C)cn1 endpoint_unit=nM recorded_value=33

Now for the compound whose IC50 we want.
For the compound shown here, COc1ccc(-c2nn(CC3CC3)c(Nc3cc(-n4nc(C)c(C#N)c4C)ncn3)c2C)cc1 , give the reported IC50.
1250
